IC50 for assorted molecules
# Experiment summary: Cytotoxicity against human HCT116 cells assessed as growth inhibition after 48 hrs by MTT assay
# Assay type: functional, cell-based
# Condition details: HCT-116, 48 h

Guide cases for IC50, answers given:
Molecule: COc1ccc(-n2c(SCC(=O)C3CC3)nnc2-c2cc(OC)c(OC)c(OC)c2)cc1
IC50: > 60 µM
//
Molecule: CCOC(=O)CSc1nnc(-c2cc(OC)c(OC)c(OC)c2)n1-c1ccc(N(C)C)cc1
IC50: > 60 µM
//
Molecule: COc1cc(-c2nnc(SCc3ccc(F)cc3)n2-c2ccc(N(C)C)cc2)cc(OC)c1OC
IC50: > 60 µM
//
Molecule: COc1ccc(C(=O)CSc2nnc(-c3cc(OC)c(OC)c(OC)c3)n2-c2ccc(N(C)C)cc2)cc1O
IC50: > 100 µM
//
Molecule: COc1ccc(-n2c(SCC(=O)c3ccc(F)cc3)nnc2-c2cc(OC)c(OC)c(OC)c2)cc1
IC50: > 60 µM

Exercise: Entry under review: COc1ccc(-n2c(SCc3ccc(F)cc3)nnc2-c2cc(OC)c(OC)c(OC)c2)cc1 . Reported IC50?
Solution: 38.7 µM

Exercise: Entry under review: COc1ccc(/C=C\c2cc(OC)c(OC)c(OC)c2)cc1O [COMBRETASTATIN A4] . Reported IC50?
Solution: 6.1 µM

Exercise: Entry under review: COc1ccc(-n2c(SCC(=O)c3ccc(OC)c(O)c3)nnc2-c2cc(OC)c(OC)c(OC)c2)cc1 . Reported IC50?
Solution: > 60 µM

Exercise: Entry under review: CCOC(=O)CSc1nnc(-c2cc(OC)c(OC)c(OC)c2)n1-c1ccc(OC)cc1 . Reported IC50?
Solution: > 60 µM

Exercise: Entry under review: COc1ccc(CSc2nnc(-c3cc(OC)c(OC)c(OC)c3)n2-c2ccc(OC)cc2)cc1 . Reported IC50?
Solution: 49.6 µM

Exercise: Entry under review: COc1cc(-c2nnc(SCC(=O)c3ccccc3)n2-c2ccc(N(C)C)cc2)cc(OC)c1OC . Reported IC50?
Solution: 42.5 µM

Exercise: Entry under review: COc1ccc(-n2c(SCC(=O)Nc3ccc(Cl)cc3)nnc2-c2cc(OC)c(OC)c(OC)c2)cc1 . Reported IC50?
Solution: > 60 µM

Exercise: Entry under review: COc1ccc(C(=O)CSc2nnc(-c3cc(OC)c(OC)c(OC)c3)n2-c2ccc(N(C)C)cc2)cc1 . Reported IC50?
Solution: > 60 µM
